# Test system: Trypanosoma brucei
# PROTOCOL SUMMARY: Binding affinity to Trypanosoma brucei methionyl-tRNA synthetase assessed as change in melting temperature at 100 uM by SYPRO orange dye based thermal shift assay
MEASURED ATTRIBUTE: ΔTm (°C)

COMPOUND: Clc1cc(Cl)cc(CN[C@@H]2CCN(c3nc4ccc(Cl)nc4[nH]3)C2)c1
ΔTm / °C: 7.2
--
COMPOUND: Clc1cc(Cl)cc(CNC2CCCC(c3nc4nc(Cl)ccc4[nH]3)C2)c1 (stereo unspecified)
ΔTm / °C: 14.2
--
COMPOUND: Clc1cc(Cl)cc(CNCCCc2nc3ccc(Cl)cc3[nH]2)c1
ΔTm / °C: 10.8
--
COMPOUND: Clc1cc(Cl)cc(CN[C@H]2CCCN(c3nc4nc(Cl)ccc4[nH]3)C2)c1
ΔTm / °C: 19
--
COMPOUND: Clc1cc(Cl)cc(CNC2CN(c3nc4nc(Cl)ccc4[nH]3)C2)c1
ΔTm / °C: 6.4

1 = Clc1cc(Cl)cc(CCN2CCCC(c3nc4nc(Cl)ccc4[nH]3)C2)c1 (stereo unspecified)
2 = O=C(N[C@H]1CCCN(c2nc3nc(Cl)ccc3[nH]2)C1)c1cc(Cl)cc(Cl)c1
# query: argmin of ΔTm over 1 and 2 Kindly give the label for the entry you pick.
2
(2: 0 °C, 1: 6 °C)

1 = Clc1cc(Cl)cc(NCC2CCCN(c3nc4nc(Cl)ccc4[nH]3)C2)c1 (stereo unspecified)
2 = Clc1cc(Cl)cc(CNC2CCN(c3nc4nc(Cl)ccc4[nH]3)CC2)c1
3 = O=C(Nc1cc(Cl)cc(Cl)c1)[C@H]1CCCN(c2nc3nc(Cl)ccc3[nH]2)C1
Sort these compounds on ΔTm so the largest reading comes first. Returns: the labels arranged in the requested order.
1, 2, 3
(1: 14.4 °C, 2: 5.8 °C, 3: 2.6 °C)

a = O=C(Cc1cc(Cl)cc(Cl)c1)N1CCCC(c2nc3c(Cl)cccc3[nH]2)C1 (stereo unspecified)
b = Clc1cc(Cl)cc(CN[C@@H]2CCC[C@H](c3nc4nc(Cl)ccc4[nH]3)C2)c1
# query: argmin of ΔTm over a and b Kindly give the label for the entry you pick.
a

a = O=C(Cc1cc(Cl)cc(Cl)c1)N1CCCC(c2nc3cc(Cl)ccc3[nH]2)C1 (stereo unspecified)
b = Clc1cc(Cl)cc(CN[C@H]2CCN(c3nc4ccc(Cl)nc4[nH]3)C2)c1
c = Clc1cc(Cl)cc(CNC2CCCN(c3nc4nc(Cl)ccc4[nH]3)C2)c1 (stereo unspecified)
Sort these compounds on ΔTm so the largest reading comes first. Returns: the labels arranged in the requested order.
c, b, a
(c: 18.4 °C, b: 11.4 °C, a: 7.2 °C)

P = Clc1cc(Cl)cc(CNC2CCCCN(c3nc4nc(Cl)ccc4[nH]3)C2)c1 (stereo unspecified)
Q = Clc1cc(Cl)cc(CNC2CCCC(c3nc4cc(Cl)ccc4[nH]3)C2)c1 (stereo unspecified)
# query: argmin of ΔTm over P and Q Kindly give the label for the entry you pick.
P

P = Clc1cc(Cl)cc(CN[C@@H]2CCCN(c3nc4nc(Cl)ccc4[nH]3)C2)c1
Q = Clc1cc(Cl)cc(CO[C@H]2CCCN(c3nc4nc(Cl)ccc4[nH]3)C2)c1
Which item exceeds the other in ΔTm, P or Q ? Kindly give the label for the entry you pick.
P
(P: 13.1 °C, Q: 7.5 °C)

a = O=C(Cc1cc(Cl)cc(Cl)c1)N1CCCC(c2nc3ccccc3[nH]2)C1 (stereo unspecified)
b = Clc1cc(Cl)cc(CNCCCc2nc3ccc(Cl)nc3[nH]2)c1
Which item exceeds the other in ΔTm, a or b ? Kindly give the label for the entry you pick.
b
(b: 12.8 °C, a: 7.8 °C)

====

# PROTOCOL SUMMARY: Inhibition of Trypanosoma brucei methionyl tRNA synthetase preincubated for 15 mins followed by L-methionine substrate addition measured after 120 mins by ATP- depletion chemiluminescence assay
MEASURED ATTRIBUTE: IC50 (nM)

a = Clc1cc(Cl)cc(CNC2CCCCN(c3nc4nc(Cl)ccc4[nH]3)C2)c1 (stereo not drawn)
b = Clc1cc(Cl)cc(CO[C@H]2CCCN(c3nc4nc(Cl)ccc4[nH]3)C2)c1
Which item exceeds the other in IC50, a or b ? Kindly give the label for the entry you pick.
a
